measurement_description: NCI Yeast Anticancer Drug Screen. Data for the mec2-1 strain (AID 157)
condition_context: S. cerevisiae mec2-1 strain, at 50.0 µM, stronger effect = higher value
About 79,000 compounds went through this panel and 15% of them were active in at least one assay; those are over-represented in the sample as a whole.
We begin with a simple list: items and their reported growth inhibition.
Field: numeric (%). Do not append units.

molecule: N#CN1CC[C@@H]2CC3(CCC2C1)OCCO3 (stereo not given in full)
endpoint_unit: %
growth inhibition: 4.3

molecule: CC(C)c1ccc(/C=C2\C=Nc3ccccc32)cc1
endpoint_unit: %
growth inhibition: 11.7

molecule: CCCCCCCCCCCCCCCCS(=O)(=O)N/N=C(/c1cccc(N)c1)N1CCOCC1
endpoint_unit: %
growth inhibition: -40.8

molecule: [N-]=[N+]=NCN1C(=O)C2C3C=CC(C2C1=O)C1C2C(=O)N(CN=[N+]=[N-])C(=O)C2C31 (stereo not given)
endpoint_unit: %
growth inhibition: -4.1

Return reported growth inhibition; argument: "O=S1(=O)c2ccc(cc2)N=CC=Nc2ccc1cc2" -11.7

Another molecule to look at: "CC(C)(C)CC(C)(C)c1ccc(OCCOc2ccc(C(=O)Nc3ccc([N+](=O)[O-])cc3)cc2)cc1" -0.3

Do the same for "Cc1ccc(S(=O)(=O)OCC23CCC(CC2)CC3)cc1" please -9.85

Again, but for "O=C(c1c(F)c(F)c(F)c(F)c1F)n1c(=O)[nH]c2ccccc21" 13.2

* * *

measurement_description: NCI Yeast Anticancer Drug Screen. Data for the bub3 strain (AID 167)
condition_context: S. cerevisiae bub3 mutant strain, at 50.0 µM, stronger effect = higher value
Experimental: Growth inhibition of yeast strains with defined genetic alterations is measured as a screen for potential anti-cancer activity. Selected strains with alterations in DNA damage repair or cell cycle control were exposed to compounds and growth inhibition was measured relative to vehicle treated controls. The strain used in this assay is bub3
This is part of a sample that, as a whole, favours compounds with a hit. Of some 79,000 tested, about 15% had one in any assay.
reported_property: growth inhibition (%)
All answers are understood in %, so give the number only.

Some solved entries appear below for comparison.
compound: C[CH2][Sn]([CH2]C)([O]C(=O)c1ccc(F)cc1)[O][Sn]([CH2]C)([CH2]C)[O]C(=O)c1ccc(F)cc1
growth inhibition, %: 12.6
--
compound: NCCNC(=O)Cc1cccc2ccccc12
growth inhibition, %: -36.5
--
compound: CSc1nc(-c2ccc([N+](=O)[O-])cc2)oc1/N=C/c1ccc([N+](=O)[O-])cc1
growth inhibition, %: 3
--
compound: O=C(O)C(C(=O)O)C1CCCCC1
growth inhibition, %: -6.5

Moving on to the next compound.
What growth inhibition value was documented for this compound, COC(=O)/C=C1\SC(OC)(N(C)c2ccccc2)N(C)C1=O (stereo not given) ? -0.8

* * *

measurement_description: NCI Yeast Anticancer Drug Screen. Data for the cln2 rad14 strain (AID 165);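 further: 0% = growth equal to vehicle treated cultures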
condition_context: S. cerevisiae cln2 rad14 strain, at 50.0 µM, stronger effect = higher value
This is part of a sample that, as a whole, favours compounds with a hit. Of some 79,000 tested, about 15% had one in any assay. The source made the active and inactive calls. Rule as the data show it: active = growth inhibition above about 70%; inactive = the rest.
reported_property: growth inhibition

Check out these entries, answers already filled in.
compound: O=C1NC(CN2CCCC(O)C2)C(=O)NC1CN1CCCC(O)C1 (stereo not given)
reported: -22.8% (inactive)

compound: COC1/C=C/OC2(C)Oc3c(C)c(O)c4c(O)c(c(/C=N/N5CCN(Cc6cccc(C(F)(F)F)c6)CC5)c(O)c4c3C2=O)NC(=O)C(C)=C/C=C/C(C)C(O)C(C)C(O)C(C)C(OC(C)=O)C1C (stereo not given)
reported: 27.2% (inactive)

compound: O=C(O)/C=C(\CC(=O)O)C(=O)O
reported: 8.15% (inactive)

compound: CS(=O)(=O)OC1CCCS(=O)(=O)c2ccccc21 (stereo not given)
reported: -46.9% (inactive)

Need growth inhibition, item "Cc1ccc(NC(=S)Nc2ccccc2C)nc1" 13.1% (inactive)

* * *

measurement_description: NCI Yeast Anticancer Drug Screen. Data for the mec2-1 strain (AID 157)
condition_context: S. cerevisiae mec2-1 strain, at 50.0 µM
The panel holds about 79,000 compounds, 15% with a hit somewhere; the sample as a whole holds those more often. Activity calls are given as the source filed them. No stated cut-off is given here; in the data, active means growth inhibition above about 70%; inactive means the rest. Where a SMILES comes first, the peptide text is derived from it. Bridges are numbered along the chain shown (N, C = ends).
In this exercise, the only acceptable responses are active, inactive

Reference set (2 entries):
molecule: COC(=O)C1CCC(=O)NCCCCC(NC(=O)C(N)CC(=O)O)C(=O)N1 (stereo not drawn) (H-Asp-Lys-Glu-OMe; lactam 2-3; configuration not given here)
class_name: inactive
--
molecule: CS(=O)(=O)OCCOc1ccccc1
class_name: inactive

Entry "CCN(C)C(=O)NC(C)=O" : call = ? inactive

Okay, and "CCC(CC)CCC(=O)CC(C)C" ? inactive

Please do the same for "O=c1cc[nH]c(=S)[nH]1.[Pt]" as well. inactive

Cool, now "C/C(=C/CCl)[N+](=O)[O-]" inactive

Please answer likewise for "CNc1ccc(OC)cc1S(=O)(=O)c1ccccc1[N+](=O)[O-]" inactive

* * *

measurement_description: NCI Yeast Anticancer Drug Screen. Data for the rad50 strain (AID 155);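 further: 0% = growth of vehicle-only cultures of the same strain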
condition_context: S. cerevisiae rad50 strain growth inhibition; at 50.0 µM; stronger effect = higher value
About 79,000 compounds went through this panel and 15% of them were active in at least one assay; those are over-represented in the sample as a whole.
reported_property: growth inhibition (%)
State just the number; it will be interpreted in %.

Consider the worked cases shown below.
molecule: NC(C(F)(F)F)(C(F)(F)F)P(=O)(Cc1ccccc1)Cc1ccccc1
growth inhibition, %: -8.35
//
molecule: C/C=C(\C)C(=O)OCC1=CCC2CCC(O)N12 (configuration not stated)
growth inhibition, %: 5.75
//
molecule: CC1(C)CCc2c(cc3c(c2O)CCC(C)(C)O3)O1
growth inhibition, %: 4.6
//
molecule: COC(=O)c1ccc(/C=C2\CCc3ccccc3C2=O)cc1
growth inhibition, %: -9.9

Need growth inhibition, item "Cc1ccc2nc(C)cc(NC(=O)c3ccccc3)c2c1" 13.6

Further, for "CN(C)c1ccc(/C=N/NC(=O)c2ccccc2NC(=O)c2ccccc2)cc1" ? -1.65

Lookup "NC(=O)c1[nH]c(/N=N/c2nc[nH]c2C(N)=O)nc1N" 24.9

Then this molecule: "O=[N+]([O-])c1ccc(/C(CBr)=N/N2CCCCCC2)cc1" -1.05

Can you handle "O=C(O)Cc1c(O)ccc2ccccc12" next? -32.7

* * *

measurement_description: NCI Yeast Anticancer Drug Screen. Data for the mec2-1 strain (AID 157)
condition_context: S. cerevisiae mec2-1 strain, at 50.0 µM
About 79,000 compounds went through this panel and 15% of them were active in at least one assay; those are over-represented in the sample as a whole. Calls of active or inactive are those of the source. Rule as the data show it: active = growth inhibition above about 70%; inactive = the rest.
Allowed answers: YES = active, NO = inactive

molecule: COC(=O)c1c(C(=O)c2ccccc2)nnn1-c1cccc(C(F)(F)F)c1
class_name: NO

Called result for "CN(C)Cc1ccc2ccccc2c1" NO

Likewise for "OCCN(CCO)c1ncnc2c1ncn2-c1ccc(CCCl)cc1" ? NO

Same for "CNc1ccccc1C(=O)N/N=C/c1ccc(O)c(OC)c1" NO

Quick one: "O=C(CCc1ccc(O)c(O)c1)NCCc1cc(OCc2ccccc2)cc(OCc2ccccc2)c1" YES

Query CC(=O)OC1CCC2(C)C3CCC4(C)C(C(C)CCCC(C)C)CCC4C3CC(=O)C23CC13 (centres undefined) next NO

Param item: CC(=O)NC(CSC1=C2NC(=O)\C=C/C=C/C=C\C(C)C(O)CC(=O)/C(C)=C\CC(O)/C=C/C(C)C(O)C(C)C=C(C)C(=O)c3c(O)c(C)cc(c3C1=O)C2=O)C(=O)O (centres undefined) NO

Consider next the molecule COc1ccc(CC2OCCC3c4ccccc4NC23)cc1OC (centres undefined) in the same way. NO

Same for CC(=O)OC1C[C@H]2C(OC(=O)c3ccccc3)C3C4(OC(C)=O)COC4C[C@H](OC(C)=O)[C@@]3(C)C(OC(C)=O)[C@H](OC(C)=O)C(=C1C)C2(C)C (some centres undefined) NO

* * *

measurement_description: NCI Yeast Anticancer Drug Screen. Data for the rad50 strain (AID 155);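 further: 0% = growth of vehicle-only cultures of the same strain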
condition_context: S. cerevisiae rad50 strain growth inhibition; at 50.0 µM; stronger effect = higher value
The panel holds about 79,000 compounds, 15% with a hit somewhere; the sample as a whole holds those more often.
reported_property: growth inhibition (%)
The figure you give is taken to be in %; do not add the unit.

molecule: CC1=C(c2cc(C(=O)Nc3cc(C)ccc3C)nc(N)n2)Sc2ccccc2N1
endpoint_unit: %
growth inhibition: 5.25

molecule: O=C(NC12CC3CC(CC(C3)C1)C2)C(O)C(O)C(O)C(O)CO (stereo unspecified)
endpoint_unit: %
growth inhibition: -16.6

molecule: N#Cc1c(N)[n+]([O-])c2c([n+]1[O-])CCCC2
endpoint_unit: %
growth inhibition: 11.4

molecule: CC(OC(C(O)C=O)C(O)C(O)CO)C(=O)N[C@@H](C)C(=O)O (stereo partly specified)
endpoint_unit: %
growth inhibition: 6.1

molecule: O=C(Cl)N(C1CCCCC1)C1CCCCC1
endpoint_unit: %
growth inhibition: -19

molecule: CC(c1ccc([N+](=O)[O-])cc1)n1cnc2c(N(CCO)CCO)ncnc21 (stereo unspecified)
endpoint_unit: %
growth inhibition: 6.3

molecule: CCC(=O)Nc1nc2c(ncn2C2OC(COC(=O)CC)C(OC(=O)CC)C2OC(=O)CC)c(=O)[nH]1 (stereo unspecified)
endpoint_unit: %
growth inhibition: -11.6

molecule: Cc1cc(N=Cc2cccs2)cc(Cl)c1O
endpoint_unit: %
growth inhibition: 21.7

molecule: CCOC(=O)C(C(=O)OCC)C(=O)C(C)(C)C
endpoint_unit: %
growth inhibition: 25.8

molecule: Nc1ccc(S(=O)(=O)n2cccc2)cc1
endpoint_unit: %
growth inhibition: -8.9

We next turn to a different molecule, shown below.
# growth inhibition lookup, item COC(=O)C1CC(=O)c2cc(OC)ccc2C1 (stereo unspecified) -1.85
